Hey, just so you know, these numbers are from patent US20220340875A1.

- tgt: hAhR (Homo sapiens)
- Construct: Stably integrated DRE-luciferase cell lines were generated by transducing the both cell lines with Cignal XRE luciferase reporter (Qiagen) lentiviral particles; endogenous in cells
- test-method-notes: AhR DRE-luciferase reporter transcriptional assay, antagonist mode (TCDD-induced)
- condition-notes: HEPG2 DRE-Luc cells, 3 nM TCDD, 24 hour incubation, relative IC50
Item-by-item account of IC50

Recorded results for 6 molecules are shown here.
INSERT INTO results (molecule, value_observed) VALUES
  ('Cc1cc(-c2ncc3nc(C(F)(F)F)cc(C)c3n2)ccc1N(C)C(=O)c1cc(C(N)=O)nn1CCO [Example 200]', '< 0.2 µM'),
  ('Cc1cc(-c2ncc3cc(C(F)(F)F)ccc3n2)ccc1NC(=O)c1ncccc1C [Example 117]', '0.5 to 1 µM'),
  ('Cc1cc(-c2ccc3c(ccn3CC(F)(F)F)n2)ccc1NC(=O)c1ccnn1C [Example 084]', '1 to 10 µM'),
  ('Cc1cc(-c2ccc3cnccc3n2)ccc1NC(=O)c1ccnn1C [Example 013]', '1 to 10 µM'),
  ('Cc1cc(-c2ncc3cc(C(F)(F)F)ccc3n2)ccc1N(C)C(=O)c1cc(C(N)=O)nn1C [Example 222]', '< 0.2 µM'),
  ('Cc1cc(-c2ccc3cnn(C)c3c2)ccc1NC(=O)c1ccnn1C [Example 090]', '1 to 10 µM');

Briefly, IC50 measured for Cc1c(-c2ccc3cc(C(F)(F)F)ccc3n2)ccc(N(C)C(=O)c2ccnn2C)c1F [Example 006] : 1 to 10 µM

Briefly, IC50 measured for COc1cnccc1C(=O)Nc1ccc(-c2ncc3nc(C(F)(F)F)cc(C)c3n2)cc1C [Example 184] : < 0.2 µM

----------
Item-by-item account of IC50
- tgt: hAhR (Homo sapiens, UniProt P35869)
- Construct: Stably integrated DRE-luciferase cell lines were generated by transducing the both cell lines with Cignal XRE luciferase reporter (Qiagen) lentiviral particles; endogenous in cells
- test-method-notes: AhR DRE-luciferase reporter transcriptional assay, antagonist mode (TCDD-induced)
- Format: cell-based
- condition-notes: HEPG2 DRE-Luc cells, 3 nM TCDD, 24 hour incubation, relative IC50

Recorded results for 5 compounds are shown here.
INSERT INTO measurements (structure, measurement_name, value_observed) VALUES
  ('Cc1cc(-c2ncc3ccc(C(F)(F)F)cc3n2)ccc1NC(=O)c1ccnn1C', 'IC50', '< 200 nM'),
  ('Cc1cc(-c2ccc3cc(Cl)ccc3n2)ccc1NC(=O)c1ccnn1C', 'IC50', '200 to 500 nM'),
  ('Cc1cc(C(F)(F)F)nc2cnc(-c3ccc(NC(=O)N4CCOCC4)c(F)c3)nc12', 'IC50', '< 200 nM'),
  ('Cc1cc(-c2ncc3cc(C(F)(F)F)ccc3n2)ccc1N(C)C(=O)N(C)C', 'IC50', '200 to 500 nM'),
  ('Cc1cc(-c2ccc3c(C(F)(F)F)cn(C)c3c2)ccc1NC(=O)c1ccnn1C', 'IC50', '1000 to 10000 nM');

Briefly, IC50 measured for Cc1cc(-c2ccc3cc(F)ccc3n2)ccc1NC(=O)c1ccnnc1 : 1000 to 10000 nM

Briefly, IC50 measured for Cc1cc(-c2ncc3nc(C(F)(F)F)cc(C)c3n2)ccc1N(C)C(=O)c1ccnn1C : < 200 nM

Briefly, IC50 measured for Cc1cc(N(C)C(=O)c2ccnn2C)c(C)cc1-c1ncc2nc(C(F)(F)F)ccc2n1 : < 200 nM

----------
- tgt: hAhR (Homo sapiens)
- Construct: Stably integrated DRE-luciferase cell lines were generated by transducing the both cell lines with Cignal XRE luciferase reporter (Qiagen) lentiviral particles; endogenous in cells
- Sequence (P35869 11-848): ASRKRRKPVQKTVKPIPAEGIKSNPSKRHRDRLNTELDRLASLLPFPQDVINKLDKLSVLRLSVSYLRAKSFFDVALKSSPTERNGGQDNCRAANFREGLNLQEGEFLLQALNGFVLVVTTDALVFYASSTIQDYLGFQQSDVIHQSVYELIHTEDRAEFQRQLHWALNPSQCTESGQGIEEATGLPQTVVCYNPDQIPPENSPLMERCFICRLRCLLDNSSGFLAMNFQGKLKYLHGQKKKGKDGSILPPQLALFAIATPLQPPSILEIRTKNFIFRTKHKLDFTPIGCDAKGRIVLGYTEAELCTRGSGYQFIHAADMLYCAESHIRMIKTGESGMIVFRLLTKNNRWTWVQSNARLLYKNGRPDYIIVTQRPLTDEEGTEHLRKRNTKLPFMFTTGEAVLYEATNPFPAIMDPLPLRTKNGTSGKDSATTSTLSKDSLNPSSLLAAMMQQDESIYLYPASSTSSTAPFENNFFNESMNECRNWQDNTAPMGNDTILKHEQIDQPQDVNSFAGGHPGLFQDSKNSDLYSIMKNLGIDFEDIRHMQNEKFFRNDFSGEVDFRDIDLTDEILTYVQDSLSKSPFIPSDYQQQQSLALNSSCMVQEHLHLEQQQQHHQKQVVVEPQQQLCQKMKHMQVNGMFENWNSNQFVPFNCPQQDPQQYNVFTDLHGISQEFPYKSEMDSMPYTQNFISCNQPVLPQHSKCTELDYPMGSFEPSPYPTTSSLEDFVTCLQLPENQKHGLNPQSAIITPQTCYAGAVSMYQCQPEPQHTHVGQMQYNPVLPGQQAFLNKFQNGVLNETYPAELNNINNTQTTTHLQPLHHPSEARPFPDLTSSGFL
- test-method-notes: AhR DRE-luciferase reporter transcriptional assay, antagonist mode (TCDD-induced)
- condition-notes: HEPG2 DRE-Luc cells, 3 nM TCDD, 24 hour incubation, relative IC50
pIC50: −log10 of the molar value.
Item-by-item account of pIC50

INSERT INTO assay_data (structure, value_observed) VALUES
  ('Cc1cc(NC(=O)c2c(C)cnn2C)c(F)cc1-c1ccc2cc(C(F)(F)F)ccc2n1', '6.30 to 6.70');

Briefly, pIC50 measured for Cc1cc(-c2ccc3nc(C(F)(F)F)cc(C)c3n2)ccc1N(C)C(=O)c1ccnn1CCO : > 6.70

Briefly, pIC50 measured for Cc1cc(C(=O)Nc2ccc(-c3ncc4nc(OC(F)(F)F)cc(C)c4n3)cc2C)ccn1 : > 6.70

----------
- tgt: hAhR (Homo sapiens)
- Construct: Stably integrated DRE-luciferase cell lines were generated by transducing the both cell lines with Cignal XRE luciferase reporter (Qiagen) lentiviral particles; endogenous in cells
- test-method-notes: AhR DRE-luciferase reporter transcriptional assay, antagonist mode (TCDD-induced)
- condition-notes: HEPG2 DRE-Luc cells, 3 nM TCDD, 24 hour incubation, relative IC50
pIC50: −log10 of the molar value.
measurement-name: pIC50

INSERT INTO results (molecule, value_observed) VALUES
  ('Cc1cc(-c2ccc3cc(C4CC4)ccc3n2)ccc1NC(=O)c1ccnn1C [Example 068]', '5.00 to 6.00');

The value of pIC50 recorded for Cc1cc(-c2ccc3cc(C(F)(F)F)ccc3n2)cc(F)c1N(C)C(=O)c1ccnn1C [Example 007] when tested on hAhR (Homo sapiens) reads > 6.70

The value of pIC50 recorded for Cc1cc(-c2ccc3cc(OC(F)(F)F)ccc3n2)ccc1NC(=O)c1ccnn1C [Example 011] when tested on hAhR (Homo sapiens) reads 6.30 to 6.70

The value of pIC50 recorded for Cc1cc(-c2ccc3cc(C(F)(F)F)cc(C)c3n2)ccc1NC(=O)c1ccnn1C [Example 203] when tested on hAhR (Homo sapiens) reads > 6.70

The value of pIC50 recorded for CN(C(=O)c1ccnn1C)c1ccc(-c2ncc3nc(C(F)(F)F)ccc3n2)cc1F [Example 138] when tested on hAhR (Homo sapiens) reads > 6.70

The value of pIC50 recorded for Cc1cc(-c2ccc3nncc(C)c3c2)ccc1NC(=O)c1ccnn1C [Example 062] when tested on hAhR (Homo sapiens) reads 5.00 to 6.00

The value of pIC50 recorded for Cc1cc(-c2ccc3cc(C(F)(F)F)ccc3n2)ccc1NC(=O)c1ccn[nH]1 [Example 204] when tested on hAhR (Homo sapiens) reads 5.00 to 6.00

The value of pIC50 recorded for Cc1c(N(C)C(=O)c2ccnn2C)ccc(-c2ncc3nc(C(F)(F)F)cc(C)c3n2)c1F [Example 175] when tested on hAhR (Homo sapiens) reads > 6.70

----------
- tgt: hAhR (Homo sapiens, UniProt P35869)
- Construct: Stably integrated DRE-luciferase cell lines were generated by transducing the both cell lines with Cignal XRE luciferase reporter (Qiagen) lentiviral particles; endogenous in cells
- test-method-notes: AhR DRE-luciferase reporter transcriptional assay, antagonist mode (TCDD-induced)
- condition-notes: HEPG2 DRE-Luc cells, 3 nM TCDD, 24 hour incubation, relative IC50
measurement-name: IC50

INSERT INTO assay_data (structure, value_observed) VALUES
  ('Cc1cc(NC(=O)c2ccnn2C)cnc1-c1ccc2cc(F)ccc2n1', '500 to 1000 nM'),
  ('CNC(=O)N(C)c1ccc(-c2ncc3cc(C(F)(F)F)ccc3n2)cc1C', '< 200 nM'),
  ('Cc1cc(-c2ncc3cc(F)cc(C)c3n2)ccc1NC(=O)c1ccnn1C', '< 200 nM'),
  ('Cc1cc(-c2ccc3cc(F)cc(C4CC4)c3n2)ccc1NC(=O)c1ccnn1C', '500 to 1000 nM');

Lab note: next compound to report on.
The value of IC50 recorded for Cc1cc(-c2ccc3nc(C(F)(F)F)cc(C)c3n2)ccc1N(C)C(=O)c1ccnn1C when tested on hAhR (Homo sapiens, UniProt P35869) reads < 200 nM
